Experiment: basal HepG2 mitochondrial membrane potential changes, profiling panel, cell-based, JC-1 fluorescence, 24 h, 100 nL compound (AID 1167); note: test concentration not given here
Details: higher = more signal
Readout Name: z-score
Numbers only.

                                     smiles  readout_name  recorded_value
0  C=CC[C@@H]1C=C[C@H](ON=C[C@@H](C)[C@H](OCc2ccccc2)C(C)C)[C@@H](CO)O1       z-score           -1.94
1  CCCCC#C[C@@H]1C=C[C@H](Oc2cc(OC)c(OC)c(OC)c2)[C@@H](COC(=O)OCC)O1       z-score          -0.163

Please go through the list and note z-score for each compound.
1. CO[C@H]1COC(=O)CC=C[C@@H](C)[C@H](NS(=O)(=O)c2ccc(C)cc2)COC(=O)CCC[C@@H]1C
2. COC(=O)CC=C[C@@H](C)[C@@H](C=NOC[C@H]1O[C@H](c2ccccc2)C=C[C@@H]1Oc1ccc(OC)cc1)OC

1: -0.3; 2: -1.05

====

I'd be grateful if you could share measured composite z-score for these entries.
Test: small-molecule binders of probe aLefty1, primary screen, biochemical, small-molecule microarray, 635/667 nm fluorescence (AID 1153);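 note: score merges spot fluorescence with signal-to-noise ratio from the scanned slide images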
Conditions: higher = more signal
Numbers only.

In the examples that follow, each entry is paired with its recorded composite z-score.
                                     smiles  recorded_value
0  CCCCC#C[C@@H]1C=C[C@H](Oc2ccc(C(=O)OC)cc2)[C@@H](COC(=O)OCC)O1         -0.0559
1  COc1ccc(C#C[C@@H]2C=C[C@H](OC(C)=O)[C@@H](COC(C)=O)O2)cc1          -0.193
2  CO[C@H]1COC(=O)CC=C[C@H](C)COC(=O)[C@@H](C)NC(=O)CC=C[C@@H]1C          0.0669
3  Cn1c(=O)n2n(c1=O)[C@H]1[C@H](O)[C@@H]3O[C@@H]3C(=O)[C@H]1CC2         -0.0984
4  CCOC(=O)NN=C1C[C@@H](O)[C@@H](O)[C@@H]2[C@@H]3C(=O)N([C@@H](C)c4ccccc4)C(=O)[C@@H]3CC[C@H]12           0.119

Please go through the list and note composite z-score for each molecule.
1. CC(C)=CCCC(C)=CCON=C1C[C@@H](O)[C@@H](O)[C@@H]2[C@@H]3C(=O)N(C(C)(C)C)C(=O)[C@@H]3CC[C@H]12
2. COc1cccc([C@H]2Oc3ccc(OC)cc3C(=NOC[C@@H](C)[C@H](OCc3ccccc3)C(C)C)[C@@H]2O)c1

1: -0.0603; 2: -0.0428

Requested read-out: composite z-score. Entry: "CON=C1[C@H]2CCn3c(=O)n(-c4ccccc4)c(=O)n3[C@H]2[C@H](O)[C@@H]2O[C@H]12"
-0.108

====

Biological target: Neurogenic locus notch homolog protein 3 (Homo sapiens)
Assay: NOTCH3 binders on small-molecule microarray, primary screen, biochemical, 635/667 nm fluorescence (AID 1096)
Settings: NOTCH3 binding, 635 nm fluorescence, higher = more signal
For each record, write down the corresponding composite z-score.
Answers are plain numbers.

Provide reported composite z-score for each item, in the same order as listed.
1. CCOC(=O)NN=C1C[C@@H](O)[C@@H](O)[C@@H]2[C@@H]3C(=O)N(c4ccc(F)cc4F)C(=O)[C@@H]3CC[C@@H]12
2. COc1ccc(COC(=O)NN=C2C[C@@H](O)[C@@H](O)[C@@H]3[C@@H]4C(=O)N(Cc5ccccc5)C(=O)[C@@H]4CC[C@H]23)cc1
3. CC(C)CON=C1[C@H]2CCn3c(=O)n(Cc4cc5c(cc4Cl)OCO5)c(=O)n3[C@H]2[C@H](O)[C@@H]2O[C@H]12
4. CCCNC(=O)OC[C@H]1O[C@H](CCON=C(C)CCN2CCCc3nc(C)c(C)cc32)C=C[C@@H]1Oc1ccc(OC)cc1
5. CCOC(=O)[C@H](CC(C)C)NC(=O)CCC1CC(OC(=O)NCc2ccc3c(c2)OCO3)CC2(CCCC(COC(=O)NCCCN3CCCC3=O)O2)O1 (stereo partly drawn)
6. CCOC(=O)[C@H](CC(C)C)NC(=O)CCC1CC(OC(=O)NCCc2ccc(F)cc2)CC2(CCCC(COC(=O)NCC3CCCCC3)O2)O1 (stereo partly drawn)
7. Cc1cc2c(nc1C)CCCCN2CC(C)ON=C[C@@H](C)[C@H](OCc1ccccc1)C(C)C (stereo partly drawn)
8. CCC1=NOC(CCC2CC(OC(=O)NCc3cccc4c3OCO4)CC3(CCCC(COC(=O)NCCc4ccccc4OC)O3)O2)C1 (stereo not drawn)

1: 0.578; 2: -0.0524; 3: 0.573; 4: 0.991; 5: 1.04; 6: 0.291; 7: -1.01; 8: 0.53

Would you mind listing composite z-score for each of the following compounds?
1. CCOC(=O)[C@H](CC(C)C)NC(=O)CCC1CC(OC(=O)NCCc2ccc(F)cc2)CC2(CCCC(COC(=O)NCCOc3ccccc3)O2)O1 (stereo partly drawn)
2. C#CCCCON=C1[C@H]2CCn3c(=O)n(C)c(=O)n3[C@H]2[C@H](O)[C@@H]2O[C@H]12
3. COc1ccc(O[C@H]2C=C[C@@H](c3ccccc3)O[C@@H]2CON=C2[C@H]3CCn4c(=O)n(-c5ccccc5)c(=O)n4[C@H]3[C@H](O)[C@@H]3O[C@H]23)cc1

[1.11, 0.891, 0.863]
